System: 598228-144-R-J1-PDC complex spheroids, viability
Test: Anticancer human tumor 598228-144-R-J1-PDC patient-derived serous endometrial adenocarcinoma cell line growth inhibition [CLK]
Conditions: second compound 1 µM; first compound 10 µM; hits give low values
Hi there, I'd appreciate the recorded viability, T/C for every entry that follows.
Give the value in % but do not write % after it.

Query: Tell me the measured viability, T/C of C=CC(=O)N1CCN(c2nc(=O)n(-c3c(C)ccnc3C(C)C)c3nc(-c4c(O)cccc4F)c(F)cc23)C(C)C1 (stereo not drawn) + CNC(=O)c1ccc(Nc2nc(OC3CCCC3)c3c(-c4ccc5nc(C)oc5c4)c[nH]c3n2)c(OC)c1 , please.
Reply: 99.3

Query: Tell me the measured viability, T/C of CCCS(=O)(=O)Nc1ccc(F)c(C(=O)c2c[nH]c3ncc(-c4ccc(Cl)cc4)cc23)c1F + CN1CCN(c2cc(C(=O)Nc3cc4cc(-c5cnn(C)c5)ccc4cn3)ccn2)CC1 , please.
Reply: 4.26

Query: Tell me the measured viability, T/C of COc1ccc([C@@H](O)c2cc(-c3ncnc4cc(N5CCOCC5)ccc34)c(F)cc2Cl)nn1 + CN1CCN(c2cc(C(=O)Nc3cc4cc(-c5cnn(C)c5)ccc4cn3)ccn2)CC1 , please.
Reply: 3.63

###

Hi there, I'd appreciate the recorded viability, T/C for every entry that follows.
Test system: 598228-144-R-J1-PDC complex spheroids, viability
Experiment: Anticancer human tumor 598228-144-R-J1-PDC cell line growth inhibition [CLK]
Settings: second compound 3.16 µM; first compound 3.16 µM; hits give low values
Excerpt: A high-throughput screen of multi-cell type tumor spheroids was designed to identify active combinations of […] and targeted small molecules. Complex spheroids include a stromal component modeled by human endothelial cells (HUVEC) and fibroblasts modeled by human mesenchymal stem cells (MSCs). […] Compounds. […] If the clinical Cmax for an agent had not been determined, the highest concentration tested was 10 microM. […]
Give the value in % but do not write % after it.

Query: Tell me the measured viability, T/C of COc1ccc([C@@H](O)c2cc(-c3ncnc4cc(N5CCOCC5)ccc34)c(F)cc2Cl)nn1 + CN1CCN(c2cc(C(=O)Nc3cc4cc(-c5cnn(C)c5)ccc4cn3)ccn2)CC1 , please.
Reply: 1.65

Query: Tell me the measured viability, T/C of COc1ccc([C@@H](O)c2cc(-c3ncnc4cc(N5CCOCC5)ccc34)c(F)cc2Cl)nn1 + CNC(=O)c1ccc(Nc2nc(OC3CCCC3)c3c(-c4ccc5nc(C)oc5c4)c[nH]c3n2)c(OC)c1 , please.
Reply: 53.9

Query: Tell me the measured viability, T/C of C=C(F)C(=O)N1CCN(c2nc(OCC3CCCN3C)nc3c2CCN(c2cccc4cccc(Cl)c24)C3)CC1CC#N (stereo not drawn) + CN1CCN(c2cc(C(=O)Nc3cc4cc(-c5cnn(C)c5)ccc4cn3)ccn2)CC1 , please.
Reply: 2.11

###

Hi there, I'd appreciate the recorded viability, T/C for every entry that follows.
System: 598228-144-R-J1-PDC complex spheroids, viability
Assay: Anticancer human tumor 598228-144-R-J1-PDC cell line growth inhibition [CLK];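 further: spheroids exposed to compounds for seven days before readout; 100% = DMSO vehicle control wells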
Conditions: second compound 0.1 µM; first compound 0.0316 µM; hits give low values

Query: Tell me the measured viability, T/C of O=c1[nH]cc(F)c(=O)[nH]1 + CNC(=O)c1ccc(Nc2nc(OC3CCCC3)c3c(-c4ccc5nc(C)oc5c4)c[nH]c3n2)c(OC)c1 , please.
Reply: 116%

Query: Tell me the measured viability, T/C of Nc1ccn(C2OC(CO)C(O)C2(F)F)c(=O)n1 (stereo not drawn) + CN1CCN(c2cc(C(=O)Nc3cc4cc(-c5cnn(C)c5)ccc4cn3)ccn2)CC1 , please.
Reply: 46.5%

Query: Tell me the measured viability, T/C of CCCS(=O)(=O)Nc1ccc(F)c(C(=O)c2c[nH]c3ncc(-c4ccc(Cl)cc4)cc23)c1F + CNC(=O)c1ccc(Nc2nc(OC3CCCC3)c3c(-c4ccc5nc(C)oc5c4)c[nH]c3n2)c(OC)c1 , please.
Reply: 102%

###

Tested on: 598228-144-R-J1-PDC complex spheroids, viability
Assay: Anticancer human tumor 598228-144-R-J1-PDC cell line growth inhibition [CLK];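 further: spheroids exposed to compounds for seven days before readout; 100% = DMSO vehicle control wells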
Conditions: second compound 0.1 µM; first compound 10 µM; hits give low values
Hi there, I'd appreciate the recorded viability, T/C for every entry that follows.

Query: Tell me the measured viability, T/C of COC1C=CCC(C)C(C)S(=O)(=O)NC(=O)c2ccc3c(c2)N(CC2CCC21)CC1(CCCc2cc(Cl)ccc21)CO3 (configuration not stated) + CN1CCN(c2cc(C(=O)Nc3cc4cc(-c5cnn(C)c5)ccc4cn3)ccn2)CC1 , please.
Reply: 36.4%

Query: Tell me the measured viability, T/C of CCCS(=O)(=O)Nc1ccc(F)c(C(=O)c2c[nH]c3ncc(-c4ccc(Cl)cc4)cc23)c1F + CN1CCN(c2cc(C(=O)Nc3cc4cc(-c5cnn(C)c5)ccc4cn3)ccn2)CC1 , please.
Reply: 72.5%

Query: Tell me the measured viability, T/C of CC(CO)NC(=O)c1cc(-c2ccc(Cl)cc2)nn(-c2cnn(C)c2)c1=O (configuration not stated) + CN1CCN(c2cc(C(=O)Nc3cc4cc(-c5cnn(C)c5)ccc4cn3)ccn2)CC1 , please.
Reply: 130%

Query: Tell me the measured viability, T/C of CC1COCCN1c1cc(C2(S(C)(=N)=O)CC2)nc(-c2ccnc3[nH]ccc23)n1 (configuration not stated) + CN1CCN(c2cc(C(=O)Nc3cc4cc(-c5cnn(C)c5)ccc4cn3)ccn2)CC1 , please.
Reply: 28.6%

Query: Tell me the measured viability, T/C of Nc1ccn(C2OC(CO)C(O)C2(F)F)c(=O)n1 (configuration not stated) + CN1CCN(c2cc(C(=O)Nc3cc4cc(-c5cnn(C)c5)ccc4cn3)ccn2)CC1 , please.
Reply: 29.5%

Query: Tell me the measured viability, T/C of Nc1ccccc1NC(=O)c1ccc(CNC(=O)OCc2cccnc2)cc1 + CN1CCN(c2cc(C(=O)Nc3cc4cc(-c5cnn(C)c5)ccc4cn3)ccn2)CC1 , please.
Reply: 0.32%

Query: Tell me the measured viability, T/C of C=CC(=O)N1CCN(c2nc(=O)n(-c3c(C)ccnc3C(C)C)c3nc(-c4c(O)cccc4F)c(F)cc23)C(C)C1 (configuration not stated) + CNC(=O)c1ccc(Nc2nc(OC3CCCC3)c3c(-c4ccc5nc(C)oc5c4)c[nH]c3n2)c(OC)c1 , please.
Reply: 118%

###

System: 598228-144-R-J1-PDC complex spheroids, viability
Assay: Anticancer human tumor 598228-144-R-J1-PDC cell line growth inhibition [CLK];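 further: spheroids exposed to compounds for seven days before readout; 100% = DMSO vehicle control wells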
Conditions: second compound 10 µM; first compound 1 µM; hits give low values
Hi there, I'd appreciate the recorded viability, T/C for every entry that follows.

Query: Tell me the measured viability, T/C of CC1(C)CCC(CN2CCN(c3ccc(C(=O)NS(=O)(=O)c4ccc(NCC5CCOCC5)c([N+](=O)[O-])c4)c(Oc4cnc5[nH]ccc5c4)c3)CC2)=C(c2ccc(Cl)cc2)C1 + CNC(=O)c1ccc(Nc2nc(OC3CCCC3)c3c(-c4ccc5nc(C)oc5c4)c[nH]c3n2)c(OC)c1 , please.
Reply: 81.2%

Query: Tell me the measured viability, T/C of COc1ccc([C@@H](O)c2cc(-c3ncnc4cc(N5CCOCC5)ccc34)c(F)cc2Cl)nn1 + CNC(=O)c1ccc(Nc2nc(OC3CCCC3)c3c(-c4ccc5nc(C)oc5c4)c[nH]c3n2)c(OC)c1 , please.
Reply: 77.5%

Query: Tell me the measured viability, T/C of O=C(c1cc(Cc2n[nH]c(=O)c3ccccc23)ccc1F)N1CCN(C(=O)C2CC2)CC1 + CN1CCN(c2cc(C(=O)Nc3cc4cc(-c5cnn(C)c5)ccc4cn3)ccn2)CC1 , please.
Reply: 1.05%

Query: Tell me the measured viability, T/C of CCc1c2c(nc3ccc(O)cc13)-c1cc3c(c(=O)n1C2)COC(=O)[C@]3(O)CC + CN1CCN(c2cc(C(=O)Nc3cc4cc(-c5cnn(C)c5)ccc4cn3)ccn2)CC1 , please.
Reply: 4.41%

###

Test system: 598228-144-R-J1-PDC complex spheroids, viability
Experiment: Anticancer human tumor 598228-144-R-J1-PDC cell line growth inhibition [CLK];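 further: spheroids exposed to compounds for seven days before readout; 100% = DMSO vehicle control wells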
Conditions: second compound 0.316 µM; first compound 3.16 µM; hits give low values
Hi there, I'd appreciate the recorded viability, T/C for every entry that follows.
Give the value in % but do not write % after it.

Query: What viability, T/C appears in the records for this compound with 598228-144-R-J1-PDC complex spheroids, viability? O=c1[nH]cc(F)c(=O)[nH]1 + CNC(=O)c1ccc(Nc2nc(OC3CCCC3)c3c(-c4ccc5nc(C)oc5c4)c[nH]c3n2)c(OC)c1
Reply: 96.2

Query: What viability, T/C appears in the records for this compound with 598228-144-R-J1-PDC complex spheroids, viability? CC(Nc1ccc2c(c1)OCCn1cc(N3C(=O)OCC3C(F)F)nc1-2)C(N)=O (stereo not given) + CN1CCN(c2cc(C(=O)Nc3cc4cc(-c5cnn(C)c5)ccc4cn3)ccn2)CC1
Reply: 4.58

Query: What viability, T/C appears in the records for this compound with 598228-144-R-J1-PDC complex spheroids, viability? CC1COCCN1c1cc(C2(S(C)(=N)=O)CC2)nc(-c2ccnc3[nH]ccc23)n1 (stereo not given) + CNC(=O)c1ccc(Nc2nc(OC3CCCC3)c3c(-c4ccc5nc(C)oc5c4)c[nH]c3n2)c(OC)c1
Reply: 76.2

Query: What viability, T/C appears in the records for this compound with 598228-144-R-J1-PDC complex spheroids, viability? O=C(c1cc(Cc2n[nH]c(=O)c3ccccc23)ccc1F)N1CCN(C(=O)C2CC2)CC1 + CNC(=O)c1ccc(Nc2nc(OC3CCCC3)c3c(-c4ccc5nc(C)oc5c4)c[nH]c3n2)c(OC)c1
Reply: 117

Query: What viability, T/C appears in the records for this compound with 598228-144-R-J1-PDC complex spheroids, viability? Nc1ccccc1NC(=O)c1ccc(CNC(=O)OCc2cccnc2)cc1 + CN1CCN(c2cc(C(=O)Nc3cc4cc(-c5cnn(C)c5)ccc4cn3)ccn2)CC1
Reply: 1.75

Each recorded value in this set is attributed to PubChem BioAssay AID2060614.
